# Test details: clinical
# Cond: human, in vivo, 550 mg
Measurement label: AUC (ng·h/mL)
Express the result in ng·h/mL but write the number alone.

Task: Find the recorded AUC belonging to CO[C@H]1/C=C/O[C@@]2(C)Oc3c(C)c(O)c4c(O)c(c5c(nc6cc(C)ccn65)c4c3C2=O)NC(=O)/C(C)=C\C=C\[C@H](C)[C@H](O)[C@@H](C)[C@@H](O)[C@@H](C)[C@H](OC(C)=O)[C@@H]1C [rifaximin] and report it.
Output: 12.3

* * *

# Test details: clinical
# Cond: male, human, in vivo
Measurement label: Cmax (ng/mL)
Your answer is read as ng/mL, so omit the unit and give the number.

Task: Given CO[C@H]1/C=C/O[C@@]2(C)Oc3c(C)c(O)c4c(O)c(c5c(nc6cc(C)ccn65)c4c3C2=O)NC(=O)/C(C)=C\C=C\[C@H](C)[C@H](O)[C@@H](C)[C@@H](O)[C@@H](C)[C@H](OC(C)=O)[C@@H]1C , state its recorded Cmax.
Output: 4.3
